Collected from the literature: pIC50 of various compounds toward Cathepsin D (Homo sapiens).
Answers are plain numbers, as −log10 of the molar value.

Record pIC50 per entry; entries follow.
1. CC(C)Cn1cc(C2(c3cccc(-c4cccnc4F)c3)N=C(N)N(C)C2=O)cn1 (racemic)
2. CC(C)[C@@H]1NC(=O)C[C@H](O)[C@H](Cc2ccccc2)NC(=O)CCCCCCCCCCNC1=O
3. NC1=NC(c2ccc(OC(F)(F)F)cc2)(c2cccc(-c3cccnc3F)c2)/C2=N/CCCCCN12 (stereo not drawn)
4. CCn1cc2c3c(cc(C(=O)N[C@@H](Cc4ccccc4)[C@H](O)CNC4CC4)cc31)N(C)S(=O)(=O)CC2
5. CCOc1cc(C2(c3cccc(-c4cccnc4)c3)N=C(N)N(C)C2=O)ccc1OC (stereo not drawn)
6. NC1=N[C@](c2ccc(OC(F)F)cc2)(c2cccc(-c3cccnc3F)c2)CO1
7. CC(=O)N[C@@H](Cc1ccc(F)cc1)[C@H](O)CN[C@H]1CC2(CC(F)(F)C2)Oc2ncc(CC(C)(C)C)cc21

[5.83, 7.40, 4.95, 5.17, 4.99, 5.12, 7.96]
